Tested on: HeLa
MEASUREMENT_PROTOCOL: Cytotoxicity against human HeLa cells
Type: functional, cell-based
pIC50: −log10 of the molar value.
MEASURE_NAME: pIC50

| MOLECULE | MEASURED_NUMBER |
| --- | --- |
| CCCCCCCCCCCCCCCC(OC(=O)[C@H](CCCCN(O)C=O)NC(=O)[C@H]1N=C(c2ccccc2O)O[C@@H]1C)C(C)C(=O)N[C@@H]1CCCCN(O)C1=O (stereo partly drawn) | 4.78 |
| CCCCCCCCCCCCCCCCCC(OC(=O)[C@H](CCCCN(O)C=O)NC(=O)[C@H]1N=C(c2ccccc2O)O[C@@H]1C)C(C)C(=O)N[C@@H]1CCCCN(O)C1=O (stereo partly drawn) | 4.78 |
| CCCCCCCCCCCCC/C=C\CCC(OC(=O)[C@H](CCCCN(O)C=O)NC(=O)[C@H]1N=C(c2ccccc2O)O[C@@H]1C)C(C)C(=O)N[C@@H]1CCCCN(O)C1=O (stereo partly drawn) | 4.78 |
